experimentalSystem: BK virus VP1 protein, genotype I (BK virus) (UniProt P03088)
testDescription: cell-based or functional assay
Lab note: compare EC50, pseudovirus neutralization with 0.02 nM, writing y if less and n if equal or more.

Problem: Does 9B4 (antibody, V domains shown) VH: QVQLVESGGDLVKPGGSLRLSCVASGFTFSDYYMNWIRLPPGKGLEWISYIDSSAGAIYYADSVKGRFTVSRDDAKNSLFLHMNSLRADDTAVYYCARERREGHKIFDFWGPGTLVTVSS VL: DIVMTQSPDSLALSLGERATINCKSSQNILYSSNNKNYLACYQQKAGQPPKLLIFWSSTRESGVPDRFSGSGSGTDFTLTISSLQAEDVAVYYCQQYYSSPYNFGRGTTLEIK have EC50, pseudovirus neutralization strictly under 0.02 nM?
Solution: n

Problem: Is EC50, pseudovirus neutralization strictly under 0.02 nM for the entry 7H8 (antibody, V domains shown) VH: EVQLLESGGGLVQPGGSLRLSCAASGFAFHTYDMTWVRQAPGKGLEWVSGVVGSGINTYYADSVKGRFTISRDNSKSTLYLQMNSLRAEDTAVYYCAKDSSSWFSLHYWGQGTLVTVSS VL: DIQMTQSPSTLSASVGDRVTITCRASQSISNWLAWYQQKPGKAPKLLIYKASSLESGVPSRFSGSGSGTDFTLTISSLQPDDFASYYCQQYRSYAYTFGQGTKLEIT ?
Solution: n
